Every entry's value here was drawn from paper PMC9478491.

test: Pharmacokinetics in rats (HPLC-MS/MS, WinNonlin); format: in vivo, SD rats; conditions: SD, rat, plasma, iv, 5 mg/kg, allopurinol, rats, intravenous injection 5 mg/kg; read-out: AUC0-∞
quantity: AUC(0-inf) (ng·h/mL)
Give bare numbers, in ng·h/mL.

Item Oc1ncnc2[nH]ncc12 [allopurinol] : provide AUC(0-inf)
1590

====

Assay: Pharmacokinetics in rats (HPLC-MS/MS, WinNonlin)
Format: in vivo, SD rats
Details: SD, rat, plasma, iv, 5 mg/kg; read-out: C2min (drug concentration in plasma)
Protocol: The volume of intravenous administration was 1 ml/250 g, and the volume of oral administration was 1 ml/100 g. Whole blood was collected at 2, 5, 10, 20, 30, 60, 120, 240, 360, 480, 720, and 1440 min after intravenous administration. The rats’ blood was transferred to the heparinized test tube. The whole blood was centrifuged at 8,000 rpm for 5 min, and the plasma was separated and stored in a refrigerator at -80°C for testing.
quantity: concentration at 2 min
Enter the number, and then the unit.

Dear colleague, please send me the reported concentration at 2 min for Oc1ncnc2[nH]ncc12 [allopurinol] when you can.
5280 ng/mL
